I'd appreciate it if you could supply Ki values for the items below.
Biological target: Histamine H1 receptor (Homo sapiens, UniProt P35367)
Sequence (P35367 whole entry): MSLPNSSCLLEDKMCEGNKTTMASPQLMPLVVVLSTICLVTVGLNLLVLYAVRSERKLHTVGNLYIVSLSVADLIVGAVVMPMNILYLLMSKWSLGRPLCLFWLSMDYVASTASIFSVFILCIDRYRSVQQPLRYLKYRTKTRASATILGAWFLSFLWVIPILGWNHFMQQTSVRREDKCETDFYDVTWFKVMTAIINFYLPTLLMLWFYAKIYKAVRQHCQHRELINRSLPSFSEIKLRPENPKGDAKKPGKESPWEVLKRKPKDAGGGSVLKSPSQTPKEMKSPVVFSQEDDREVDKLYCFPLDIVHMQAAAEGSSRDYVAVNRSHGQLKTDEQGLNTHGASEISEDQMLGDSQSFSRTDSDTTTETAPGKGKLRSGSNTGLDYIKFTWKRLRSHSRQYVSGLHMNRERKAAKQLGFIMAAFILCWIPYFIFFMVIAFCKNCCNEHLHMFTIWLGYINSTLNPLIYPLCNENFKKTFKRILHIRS
Test: Displacement of [3H]pyrilamine from human recombinant histamine H1 receptor expressed in CHO cell by Betaplate scintillation counting
Assay type: cell-based
Settings: read-out: Ki
Give the quantity in nM, number only.

Supply Ki value. Item: `Cc1ccc(CCN2CCC(C(O)(c3ccccc3)c3ccccc3)CC2)cc1`
64

Identify Ki associated with the molecule `O=C(O)c1ccc(CCCCN2CCC(C(O)(c3ccccc3)c3ccccc3)CC2)cc1`
203

// fetch Ki given entry `Cc1ccc(CCCCN2CCC(C(O)(c3ccccc3)c3ccccc3)CC2)cc1`
39

Provide only the value of recorded Ki for `COC(=O)c1ccc(CCCCN2CCC(C(O)(c3ccccc3)c3ccccc3)CC2)cc1`
20

Give Ki for the following molecule: OC(c1ccccc1)(c1ccccc1)C1CCNCC1 [AZACYCLONOL]
659

Could you please provide reported Ki for `Cc1ccc(CCCCN2CCCCC2)cc1` ? Thanks!
3200

State its Ki: `Cc1ccc(CCCN2CCC(C(O)(c3ccccc3)c3ccccc3)CC2)cc1`
155

Dear colleague, please send me the reported Ki for Cc1ccc(CCCCN2CCC(C(O)c3ccccc3)CC2)cc1 (stereo not given) when you can.
121

Give Ki for `Cc1ccc(CN2CCC(C(O)(c3ccccc3)c3ccccc3)CC2)cc1`
16

Report Ki for CC1CCC(CCCCN2CCC(C(O)(c3ccccc3)c3ccccc3)CC2)CC1 (stereo not given)
61

---

Tested on: Cavia porcellus
Assay: Cardiovascular toxicity in Hartley guinea pig assessed as QTc prolongation at 100 mg/kg, iv after 30 mins by ECG
Format: organism-based
Parameters: dose 100 mg/kg, route intravenous
Conditions: in vivo, 0.5 h
METRIC_NAME: MED

Tell me its MED given CC(C)(C(=O)O)c1ccc(C(O)CCCN2CCC(C(O)(c3ccccc3)c3ccccc3)CC2)cc1 (racemic) [FEXOFENADINE] as the entry.
> 100 mg/kg

Data origin, for the record: ChEMBL document CHEMBL1155359
